ASSAYED SYSTEM: T1, human GLP-1 receptor (human, UniProt P43220 24-463)
T1 construct: whole, on cells
EXPERIMENTAL DETAILS: 125I-GLP-1 displacement, membranes of CHOK1 cells expressing human GLP-1 receptor
No end group written: not given here.
Friendly reminder: IC50 below 100 nM is met, at or above is not met.

Solved cases below.
* SHAEGTFTSDVSSYLEGQAAKEFIAWLVKGR (ends and bridges not checked, Not pegylated; also called S-CLP-1) [S-GLP-1 (SEQ ID NO: 250)] | met
* MYHAEGTFTSDVSSYLEGQAAKEFIAWLVKGR (ends and bridges not checked, Not pegylated) [MY-GLP1 (SEQ ID NO: 259)] | met
* MFHAEGTFTSDVSSYLEGQAAKEFIAWLVKGR (ends and bridges not checked, Not pegylated) [MF-GLP1 (SEQ ID NO: 266)] | not met

Req: Determine whether this binder shows IC50 lower than 100 nM (ties excluded): AHAEGTFTSDVSSYLEGQAAKEFIAWLVKGR (Not pegylated) [A-GLP-1 (SEQ ID NO: 247)]
Resp: met

Source listed as patent US20100048468A1.
